Measured inhibition at 1 µM by item
Tested on: MiaPaCa-2 cells
protocolDescription: Cytotoxicity assay in MiaPaCa-2 (XTT, 72 h)
Assay type: cell-based
assaySetup: Homo sapiens, MIA PaCa-2, 72 h, 1 μM, DMSO control = 0% inhibition, read-out: Cell cytotoxicity assay (% Inhibition at 1 μM)
Write the value in % as a bare number.

Worked examples, 4 compounds total:
Cc1cnc(-c2ccc(F)nc2)c(OCC2CC(CNC(=O)c3ccc4nccn4c3)=NO2)c1 (single isomer, unassigned) [Example 11a]
88
O=C(NCC1=NOC(COc2cccnc2-c2ccc(F)nc2)C1)c1ccc2nccn2c1 (racemic)
96
O=C(NCC1=NOC(COc2cccnc2-c2ccc(F)nc2)C1)Nc1ccncc1 (racemic)
90
O=C(NCC1=NOC(COc2cc(F)cnc2-c2cccnc2)C1)c1ccc2nccn2c1 (racemic)
99

Quote inhibition at 1 µM reported for Cn1cc(-c2ncccc2OCC2CC(CNC(=O)c3ccc4nccn4c3)=NO2)cn1 (racemic) please.
47
